PROTOCOL_DESCRIPTION: small-molecule binders of probe aNOTCH2, primary screen, biochemical, small-molecule microarray, 635/667 nm fluorescence (AID 1121);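 note: score merges feature fluorescence read at 667 nm with its signal to noise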
PARTICULARS: higher = more signal

MOLECULE | composite z-score
CO[C@H]1COC(=O)CCC[C@@H](C)[C@H](OC)COC(=O)[C@@H](C)NC(=O)CC=C[C@@H]1C | -0.134
C=CC[C@@H]1C=C[C@H](ON=C(C)CCC(=O)OC[C@H]2O[C@H](C#Cc3ccccc3)C=C[C@@H]2Oc2ccc(C)cc2)[C@@H](CO)O1 | -0.101
CCOC(=O)[C@H](CC(C)C)NC(=O)CCC1CC(OC(=O)NCCc2ccc(F)cc2)CC2(CCCC(COC(=O)NCC(c3ccccc3)c3ccccc3)O2)O1 (some centres undefined) | -0.108
CCOC(=O)[C@H](CC(C)C)NC(=O)CCC1CC(OC(=O)NCc2cccc3ccccc23)CC2(CCCC(COC(=O)NCCCN3CCCC3=O)O2)O1 (some centres undefined) | -0.108
CC(CCN1CCCc2nc(C)c(C)cc21)=NOC(C)CN1CCCCc2nc(C)c(C)cc21 (centres undefined) | 0.101
Cc1cc2c(nc1C)CCCCN2CC(C)ON=C1[C@H]2CCn3c(=O)n(-c4ccccc4)c(=O)n3[C@H]2[C@H](O)[C@@H]2O[C@H]12 (some centres undefined) | -0.117
COC(=O)CC=C[C@@H](C)[C@@H](C=NO[C@@H](C)c1cc(-c2c(C)cc(C)cc2C)no1)NS(=O)(=O)c1ccc(C)cc1 | -0.115
COC(=O)CC=C[C@@H](C)[C@@H](C=NOC(C)CN1CCCc2nc(C)c(C)cc21)OC (some centres undefined) | -0.176
CC(=O)OC[C@H]1O[C@H](CCON=C2[C@H]3CCn4c(=O)n(-c5ccccc5)c(=O)n4[C@H]3[C@H](O)[C@@H]3O[C@H]23)C=C[C@@H]1OC(C)=O | 0.088
Cc1cc2c(c(=O)o1)[C@@H](O)[C@H]1O[C@H]1C2=O | -0.132
C#CCCCON=C1C[C@@H](O)[C@@H](O)[C@@H]2[C@@H]3C(=O)N(c4ccc(F)cc4F)C(=O)[C@@H]3CC[C@H]12 | -0.151
COC(=O)[C@@H]1CC[C@H](C)[C@@H](c2ccc(C)cc2)N1C(=O)c1ccc(C=NO[C@H](C)c2cn([C@H](CO)Cc3ccccc3)nn2)cc1 | 0.111
COC(=O)CC=C[C@@H](C)[C@@H](C=NO[C@@H]1O[C@H](COC(C)=O)[C@@H](OC(C)=O)[C@H](OC(C)=O)[C@H]1OC(C)=O)NS(=O)(=O)c1ccc(C)cc1 | -0.0984
CC[C@@H](c1ccccc1)n1c(=O)n2n(c1=O)[C@H]1[C@H](O)[C@@H]3O[C@@H]3C(=NOC[C@@H](O)COCc3ccco3)[C@H]1CC2 | -0.133

---

Test system: Sam68 (KHDRBS1)
PROTOCOL_DESCRIPTION: Sam68 small-molecule binders, primary screen, biochemical, small-molecule microarray, 635 nm fluorescence (AID 1125);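 note: score merges 667 nm channel intensity with signal to noise over triplicate slides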
PARTICULARS: small-molecule microarray binding, higher = more signal
Quick reference for composite z-score among some compounds
MEASUREMENT_TYPE: composite z-score

SMILES_STRING | EXPERIMENTAL_TARGET | MEASUREMENT_TYPE | OBSERVED_RESULT
O=C(NN=C1C[C@@H](O)[C@@H](O)[C@@H]2[C@@H]3C(=O)N(C4CCCCC4)C(=O)[C@@H]3CC[C@H]12)OCc1ccccc1 | Sam68 (KHDRBS1) | composite z-score | -0.337
CC(=O)OC[C@H]1O[C@H](CC=NO[C@H](C)c2cn([C@H](CO)Cc3ccccc3)nn2)C=C[C@@H]1OC(C)=O | Sam68 (KHDRBS1) | composite z-score | 1.29
COc1cccc([C@H]2Oc3ccc(OC)cc3C(=NO[C@@H]3O[C@H](COC(C)=O)[C@@H](OC(C)=O)[C@H](OC(C)=O)[C@H]3OC(C)=O)[C@@H]2O)c1 | Sam68 (KHDRBS1) | composite z-score | 0.153
